The reported measurements were obtained from patent US20240116985A1.

Exercise: state measured Solubility for each of the compounds provided.
# assayComment: Solubility in PBS
# Type: physicochemical
# statedConditions: Solubility (uM)
Give bare numbers, in µM.

{"compound": "CC[C@H](C)[C@@H]1NC(=O)[C@H](CC(=O)O)NC(=O)[C@]2(CC=CCCCC3(CCCC=CCCCCCC[C@@](C)(C(=O)N[C@@H](Cc4ccccc4OC)C(=O)N[C@@H](Cc4csc5ccccc45)C(=O)N[C@@H](Cc4c[nH]cn4)C(N)=O)NC(=O)[C@H](CC(N)=O)NC(=O)[C@H](Cc4ccccc4)NC(=O)[C@H](C)NC(=O)[C@H](C)NC(=O)[C@H](CCC(=O)O)NC(=O)[C@H](CC(=O)O)NC3=O)NC1=O)CCCN2C(C)=O (some centres unmarked)", "Solubility (µM)": 17}

Now take the following compound into account.
Form field Solubility, entry CC(=O)N1CCC[C@]12CC=CCCCC1(CCCC=CCCCOC(=O)N3CC[C@@](C(=O)N[C@@H](Cc4ccsc4)C(=O)N[C@@H](Cc4csc5ccccc45)C(=O)N[C@H](CC(N)=O)C(N)=O)(C3)NC(=O)[C@H](CC(N)=O)NC(=O)[C@H](Cc3ccccc3)NC(=O)[C@H](C)NC(=O)[C@H](C)NC(=O)[C@H](CC(=O)O)NC(=O)[C@H](CC(=O)O)NC1=O)NC(=O)[C@H](CC(C)(C)C)NC(=O)[C@H](CC(=O)O)NC2=O (some centres unmarked) : 48

###

# assayComment: CHI Log D procedure
# Type: physicochemical
# statedConditions: pH 7.4, CHI Log D
observedProperty: logD
Numbers only.

{"molecule": "CC(=O)N1CCC[C@]12CC=CCCCC1(CCCC=CCCCCCC[C@@](C)(C(=O)N[C@@H](Cc3ccsc3)C(=O)N[C@@H](Cc3csc4ccccc34)C(=O)N[C@@H](CCC(N)=O)C(=O)N[C@@H](C)C(=O)N[C@@H](C)C(=O)N[C@H](C)C(N)=O)NC(=O)[C@H](CC(N)=O)NC(=O)[C@H](Cc3ccccc3)NC(=O)[C@H](C)NC(=O)[C@H](C)NC(=O)[C@H](CC(=O)O)NC(=O)[C@H](CC(=O)O)NC1=O)NC(=O)[C@H](CC(C)(C)C)NC(=O)[C@H](CC(=O)O)NC2=O (some centres unmarked) [I-877]", "observedProperty": "logD", "experimentalValue": 2.35}

In the following, a different molecule is considered.
So, CC(=O)N1CCC[C@]12CC=CCCCC1(CCCC=CCCCOC(=O)N3CC[C@@](C(=O)N[C@@H](Cc4ccsc4)C(=O)N[C@@H](Cc4csc5ccccc45)C(=O)N[C@@H](CCC(N)=O)C(N)=O)(C3)NC(=O)[C@H](CC(C)C)NC(=O)[C@H](Cc3ccccc3)NC(=O)[C@H](C)NC(=O)[C@H](CCCCNC(=O)c3ccc(-n4cc(CNC(=O)c5ccc6c(c5)C5(OC6=O)c6ccc(O)cc6Oc6cc(O)ccc65)nn4)cc3)NC(=O)[C@H](CC(C)C)NC(=O)[C@H](CC(=O)O)NC1=O)NC(=O)[C@H](CC(C)(C)C)NC(=O)[C@H](CC(=O)O)NC2=O (some centres unmarked) [I-868] ? Its logD was 1.88

###

# assayComment: CHI Log D procedure
# Format: physicochemical
# statedConditions: pH 7.4
observedProperty: CHI Log D

Please review the entries below; each comes with its answer.
{"compound": "CC(=O)N1CCC[C@]12CC=CCCCC1(CCCC=CCCCCCC[C@@](C)(C(=O)N[C@@H](Cc3ccccc3)C(=O)N[C@@H](Cc3csc4ccccc34)C(=O)N[C@@H](CCC(N)=O)C(N)=O)NC(=O)[C@H]([C@@H](C)O)NC(=O)[C@H](Cc3ccccc3)NC(=O)[C@H](C)NC(=O)[C@H](C)NC(=O)[C@H](CCC(=O)O)NC(=O)[C@H](CC(=O)O)NC1=O)NC(=O)[C@H](CC(C)C)NC(=O)[C@H](CC(=O)O)NC2=O (some centres unmarked) [I-623]", "CHI Log D": 2.494}
{"compound": "CC(=O)N1CCC[C@]12CC=CCCCC1(CCCC=CCCCCCC[C@@](C)(C(=O)N[C@@H](Cc3ccccc3)C(=O)N[C@@H](Cc3c[nH]c4ccccc34)C(=O)N[C@@H](CCC(N)=O)C(N)=O)NC(=O)[C@H](C(C)C)NC(=O)[C@H](Cc3cc(F)c(F)c(F)c3)NC(=O)[C@H](C)NC(=O)[C@H](C)NC(=O)[C@H](CCC(=O)O)NC(=O)[C@H](CC(=O)O)NC1=O)NC(=O)[C@H](C)NC(=O)[C@H](CC(=O)O)NC2=O (some centres unmarked) [I-212]", "CHI Log D": 2.101}
{"compound": "CC(=O)N1CCC[C@]12CC=CCCCC1(CCCC=CCCCCCC[C@@](C)(C(=O)N[C@@H](Cc3ccccc3)C(=O)N[C@@H](Cc3csc4ccccc34)C(=O)N[C@@H](CCC(N)=O)C(N)=O)NC(=O)[C@H](C)NC(=O)[C@H](Cc3cccc(C(F)(F)F)c3)NC(=O)[C@H](C)NC(=O)[C@H](C)NC(=O)[C@H](CC(=O)O)NC(=O)[C@H](CC(=O)O)NC1=O)NC(=O)[C@H](C)NC(=O)[C@H](CC(=O)O)NC2=O (some centres unmarked) [I-377]", "CHI Log D": 2.296}
{"compound": "CC(=O)N1CCC[C@]12CC=CCCCC1(CCCC=CCCCCCC[C@@](C)(C(=O)N[C@@H](Cc3cccc(F)c3)C(=O)N[C@@H](Cc3csc4ccccc34)C(=O)N[C@@H](CCC(N)=O)C(N)=O)NC(=O)[C@H](C(C)C)NC(=O)[C@H](Cc3ccccc3)NC(=O)[C@H](C)NC(=O)[C@H](C)NC(=O)[C@H](CC(N)=O)NC(=O)[C@H](CC(=O)O)NC1=O)NC(=O)[C@H](C)NC(=O)[C@H](CC(=O)O)NC2=O (some centres unmarked) [I-381]", "CHI Log D": 2.636}

# evaluate next
The compound listed as CC(=O)N1CCC[C@]12CC=CCCCC1(CCCC=CCCCCCC[C@@](C)(C(=O)N[C@@H](Cc3ccccc3)C(=O)N[C@@H](Cc3csc4ccccc34)C(=O)N[C@@H](CCC(N)=O)C(N)=O)NC(=O)[C@H](CC(N)=O)NC(=O)[C@H](Cc3ccccc3C)NC(=O)[C@H](C)NC(=O)[C@H](C)NC(=O)[C@H](CCC(=O)O)NC(=O)[C@H](CC(=O)O)NC1=O)NC(=O)[C@H](C)NC(=O)[C@H](CC(=O)O)NC2=O (some centres unmarked) [I-456] has a reported CHI Log D of 2.0045
